Just for reference, PubChem BioAssay (NCI) is where these values come from.

# Test system: UO-31 renal
# assayText: NCI-60 one-dose screen, 48 h (100 = growth as untreated, 0 = no growth, -100 = all killed)
# protocolConditions: 10 µM
About 83,000 compounds went through this panel and 20% of them were active in at least one assay; those are over-represented in the sample as a whole.
# growth per record follows
Give the quantity in %, number only.

Examples from the recorded data:
# return recorded growth for entry Cc1ccc2nc(COc3ccc(C(=O)NNC(=S)NC(=O)c4ccccc4)cc3)[nH]c2c1
18.6

# return recorded growth for entry CC1(c2ccccc2)NC(=O)N(CC(=O)Nc2ccc(C(=O)/C=C/c3ccc(Br)cc3)cc2)C1=O (stereo not drawn)
34.3

# return recorded growth for entry Cc1cc(=O)oc2cc(OCCCCOc3ccc(/C=C/C(=O)Nc4cccc(Cl)c4)cc3)ccc12
84.9

# return recorded growth for entry C=C(C)[C@@H]1CC[C@]2(C(=O)OC)CC[C@]3(C)[C@H](CC[C@@H]4[C@@]5(C)CC[C@H](N)C(C)(C)[C@@H]5CC[C@]43C)[C@@H]12
-100

More entries:
# return recorded growth for entry COc1cc2c3c(n(CCCn4ccnc4)c(=O)c2cc1OC)-c1nc2c(cc1C3=O)OCO2
26.5

# return recorded growth for entry NS(=O)(=O)c1ccc(NC(=O)CSc2ccc(-c3ccccc3)nn2)c(Br)c1
75.1

# return recorded growth for entry COc1ccc(C(=O)/C=C/c2ccc(Cl)c(C(F)(F)F)c2)cc1S(N)(=O)=O
-99.6

# return recorded growth for entry COc1ccc(CN2[C@H](C(=O)NCCCCCCC(=O)NO)Cc3c([nH]c4ccccc34)[C@H]2C2CC2)cc1
7.67

###

# System: DU-145 prostate
# assayText: NCI-60 one-dose screen, 48 h (100 = growth as untreated, 0 = no growth, -100 = all killed)
# protocolConditions: 10 µM
The panel holds about 83,000 compounds, 20% with a hit somewhere; the sample as a whole holds those more often.
parameter: growth (%)
Give the quantity in %, number only.

Examples from the recorded data:
Under DU-145 prostate, report growth for CCOC(=O)CNC(=O)CN(Cc1ccccc1)C(=O)[C@@]1(C)CCC[C@]2(C)[C@H]3CC4C(C(C)C)=C[C@]3(CC[C@H]21)[C@@H]1C(=O)CCC(=O)[C@H]41
92.6

Under DU-145 prostate, report growth for O=c1c2ccccc2nc(COc2ccccc2)n1/N=C/c1ccc(N2CCOCC2)cc1
77.5

Under DU-145 prostate, report growth for O=C(c1ccc(Cl)cc1)C1[C@H](c2ccccc2Br)[C@@H](c2ccccc2)NC12C(=O)Nc1ccccc12 (stereo partly drawn)
17.6

Under DU-145 prostate, report growth for CN1CCN(c2ccc(Nc3nc(NCCCNC(=O)c4ccc(F)cc4)c4sccc4n3)cc2)CC1
75.5

More entries:
Under DU-145 prostate, report growth for COc1ccc2ncc(C#Cc3cncc(C(=O)Nc4ccc(CN5CCN(C)CC5)c(C(F)(F)F)c4)c3)n2n1
-100

Under DU-145 prostate, report growth for COc1ccccc1[C@H]1C(C(=O)c2ccc(O)cc2)C2(N[C@@H]1c1ccccc1)C(=O)Nc1ccc(Br)cc12 (stereo partly drawn)
56

Under DU-145 prostate, report growth for Cc1ccc(-c2cc(C(=O)N=Nc3c(O)[nH]c4ccccc34)c3ccccc3n2)cc1
3.29

Under DU-145 prostate, report growth for CN(C)CCNC(=O)OCCCCOc1cc(O)c2c(=O)cc(-c3ccccc3)oc2c1
-27

###

# System: MDA-MB-231 breast
# assayText: NCI-60 one-dose screen, 48 h
# protocolConditions: 10 µM
This is part of a sample that, as a whole, favours compounds with a hit. Of some 83,000 tested, about 20% had one in any assay. Active and inactive are the calls of the source. The calls were made as follows: active = growth percent below 10; inactive = the rest.
A correct response names exactly one class from active, inactive

// below: answered compounds
Outcome logged for COc1cc(-c2nc3cc(Cl)c(Cl)cc3[nH]2)ccc1OCc1nnc(-c2ccc(Br)cc2)o1 in this assay:
active

Outcome logged for CCCn1c(=O)c2[nH]c(-c3ccc(OCc4nc5ccc(C#N)cc5[nH]4)cc3)nc2n(CCC)c1=O in this assay:
inactive

Outcome logged for CCOC(=O)CNC(=O)CN(Cc1ccccc1)C(=O)[C@@]1(C)CCC[C@]2(C)[C@H]3CC4C(C(C)C)=C[C@]3(CC[C@H]21)[C@@H]1C(=O)CCC(=O)[C@H]41 in this assay:
inactive

Outcome logged for CN1CCN(c2ccc(Nc3nc(NCCCNC(=O)c4ccc(Cl)cc4)c4sccc4n3)cc2)CC1 in this assay:
inactive

Outcome logged for COc1ccc(CN2[C@H](C(=O)NCc3ccc(C(=O)NO)cc3)Cc3c([nH]c4ccccc34)[C@H]2C2CC2)cc1 in this assay:
inactive

More entries:
Outcome logged for C=CC(=O)Nc1nc(-c2cccc(NS(=O)(=O)c3cccc4c(N(C)C)cccc34)c2)cs1 in this assay:
active

Outcome logged for COc1ccc(/C(C)=N/N=C2C(=O)N(C)c3ccc(Br)cc32)cc1S(N)(=O)=O in this assay:
inactive

Outcome logged for O=C1NC(=NC23CC4CC(CC(C4)C2)C3)N/C1=C\c1ccc2ncoc2c1 in this assay:
active

###

# System: CAKI-1 renal
# assayText: NCI-60 one-dose screen, 48 h
# protocolConditions: 10 µM
The panel holds about 83,000 compounds, 20% with a hit somewhere; the sample as a whole holds those more often. Activity calls are given as the source filed them. How the source made its calls: active means growth percent below 10; inactive means the rest.
A correct response names exactly one class from active, inactive

// below: answered molecules
Outcome logged for COc1ccc(C(=O)/C=C/c2cc(C(F)(F)F)cc(C(F)(F)F)c2)cc1S(N)(=O)=O in this assay:
active

Outcome logged for O=C(Nc1nc2ccc([N+](=O)[O-])cc2s1)Nc1ccccc1I in this assay:
active

Outcome logged for CCCCSc1nc(Nc2ccc(/C(C)=N/NC(N)=S)cc2)c(C#N)c(-c2ccc(F)cc2)n1 in this assay:
inactive

Outcome logged for COC(=O)C(Cc1ccc(O)c(O)c1)NC(=O)C(CSC/C=C(\C)CCCC(C)CCCC(C)CCCC(C)C)NC(C)=O (stereo not drawn) in this assay:
inactive

More entries:
Outcome logged for CC1(c2ccccc2)NC(=O)N(CC(=O)Nc2ccc(C(=O)/C=C/c3ccccc3)cc2)C1=O (stereo not drawn) in this assay:
inactive

Outcome logged for Cc1ccc(NC(=O)c2ccc(-n3c(=O)[nH]c4ccccc4c3=O)cc2)cc1 in this assay:
inactive

Outcome logged for CN(C(=O)c1ccc(C(F)(F)F)cc1C(F)(F)F)c1sc2c(c1C#N)CCC(=O)C2 in this assay:
inactive

Outcome logged for CC(C)c1ccc(C(=O)Nc2sc3c(c2C(N)=O)CCC(=O)C3=O)cc1 in this assay:
inactive

Outcome logged for COc1ccc2[nH]c(O)c(N=NC(=O)COc3ccc(NC(=O)Nc4ccc(Cl)cc4)cc3)c2c1 in this assay:
inactive

Outcome logged for O=C(Nc1ccncc1)c1ccc(-n2c(=O)[nH]c3ccccc3c2=O)cc1 in this assay:
inactive

Outcome logged for CC1(C)CC[C@]2(C(=O)O)CC[C@]3(C)C(=CC[C@@H]4[C@@]5(C)C/C(=C/c6ccncc6)[C@H](O)C(C)(C)[C@@H]5CC[C@]43C)[C@@H]2C1 in this assay:
inactive

Outcome logged for O=C(c1ccc(Cl)cc1)C1[C@H](c2ccccc2Br)[C@@H](c2ccccc2)NC12C(=O)Nc1ccc(Cl)cc12 (stereo partly drawn) in this assay:
active

Outcome logged for CCOC(=O)CNC(=O)CN(Cc1ccccc1)C(=O)[C@@]1(C)CCC[C@]2(C)[C@H]3CC4C(C(C)C)=C[C@]3(CC[C@H]21)[C@@H]1C(=O)CCC(=O)[C@H]41 in this assay:
inactive

Outcome logged for COc1ccc2[nH]cc(/C=N/Nc3ccc(Br)cn3)c2c1 in this assay:
inactive

Outcome logged for O=c1oc2ccc(-c3ccc(F)cc3F)cc2c(=O)n1-c1ccc(F)c(Cl)c1 in this assay:
active

Outcome logged for C/C(=C\CC/C=C(\C)CC/C=C(\C)CC[C@@H](O)C(C)(C)O)CC/C=C(\C)CC[C@@H](O)C(C)(C)O in this assay:
inactive

Outcome logged for CCOC(=O)C1=C(N)N(c2ccc(C)cc2)C2=C(C(=O)CC(C)(C)C2)C1c1ccccc1OC (stereo not drawn) in this assay:
inactive

Outcome logged for O=C(Nc1ccc(I)cc1F)c1cc(-c2ccc(F)cc2F)ccc1O in this assay:
active

###

# Test system: SK-OV-3 ovarian
# assayText: NCI-60 one-dose screen, 48 h
# protocolConditions: 10 µM
About 83,000 compounds went through this panel and 20% of them were active in at least one assay; those are over-represented in the sample as a whole. Calls of active or inactive are those of the source. How the source made its calls: active means growth percent below 10; inactive means the rest.
A correct response names exactly one class from active, inactive

// below: answered compounds
Outcome logged for COc1cccc2nc(Nc3cccc(NC(=O)c4ccc(CN5CCCN(C)CC5)c(C(F)(F)F)c4)c3)ccc12 in this assay:
active

Outcome logged for COc1cc2c3c(n(CCCNC(C)C)c(=O)c2cc1OC)-c1nc2c(cc1C3=O)OCO2 in this assay:
inactive

Outcome logged for COC1=C[C@]23CCC(=O)N2CCc2cc4c(cc2[C@@H]3[C@@H]1OC(=O)CCCC(C)C)OCO4 in this assay:
inactive

Outcome logged for COc1ccc2[nH]c(O)c(N=NC(=O)COc3ccc(NC(=O)Nc4ccc(Cl)c(Cl)c4)cc3)c2c1 in this assay:
active

Outcome logged for COc1ccc(-c2ccc(/C=N/NC(=O)c3[nH]c4ccc(Br)cc4c3-c3ccccc3)o2)cc1 in this assay:
inactive

More entries:
Outcome logged for Nc1nc(Nc2ccc(Cl)cc2)n(Cc2cccc(Br)c2)n1 in this assay:
active

Outcome logged for Nc1nnc(-c2c[nH]c3ccc(F)cc23)c(-c2c[nH]c3ncccc23)n1 in this assay:
inactive

Outcome logged for CCOP(=O)(OCC)O[C@H]1CCC(=O)[C@@H]2[C@H]1[C@H]1C[C@@H]3[C@@]4(C)CCCC(C)(C(=O)OC)[C@@H]4CC[C@@]23C=C1C(C)C (stereo partly drawn) in this assay:
inactive
